For each of the molecules below, state its analgesic properties (II), potency ratio versus natural reference product.
Test system: Swiss mice
ASSAY DETAILS: Analgesic activity (Hendershot et al.)
Format: in vivo
RECORDED CONDITIONS: oral 3 to 30 mg/Kg in carboxymethylcellulose, natural product = 1.0

Query block: I have this molecule here, CC(C(=O)OCCOCCO[N+](=O)[O-])c1ccc(C(=O)c2ccccc2)s1 (stereo not shown) , and I need its recorded analgesic properties (II), potency ratio versus natural reference product.
Result block: 1.3

Query block: I have this molecule here, CC(C(=O)O)c1ccc(C(=O)c2ccccc2)s1 (stereo not shown) [TIAPROFENIC ACID, reference compound] , and I need its recorded analgesic properties (II), potency ratio versus natural reference product.
Result block: 1.0

Query block: I have this molecule here, `O=C(Cc1ccccc1Nc1c(Cl)cccc1Cl)OCCOCCO[N+](=O)[O-]` , and I need its recorded analgesic properties (II), potency ratio versus natural reference product.
Result block: 0.9

Query block: I have this molecule here, CC(C)Cc1ccc(C(C)C(=O)O)cc1 (stereo not shown) [IBUPROFEN, reference compound] , and I need its recorded analgesic properties (II), potency ratio versus natural reference product.
Result block: 1.0

Query block: I have this molecule here, CC(C(=O)OCCOCCO[N+](=O)[O-])c1ccc(-c2ccccc2)c(F)c1 (stereo not shown) , and I need its recorded analgesic properties (II), potency ratio versus natural reference product.
Result block: 1.0

Query block: I have this molecule here, O=C(c1ccccc1)c1ccc2n1CCC2C(=O)O (stereo not shown) [KETOROLAC, reference compound] , and I need its recorded analgesic properties (II), potency ratio versus natural reference product.
Result block: 1.0

Query block: I have this molecule here, CC(C(=O)Oc1cccc(CO[N+](=O)[O-])c1)c1cccc(C(=O)c2ccccc2)c1 (stereo not shown) , and I need its recorded analgesic properties (II), potency ratio versus natural reference product.
Result block: 1.2
